Where do these numbers come from? They come from the NTF2 design screens of Basanta et al. (2020).

Task for the reader: assign each of the following sequences its reported protease stability score.
Assay: protease stability score; higher = more stable; yeast display proteolysis, trypsin and chymotrypsin;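 note: log10 excess protease needed over predicted unfolded state with 0 meaning unfolded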
Returns: the value as a bare number; no unit string appended.

For reference, reported protease stability score for DEDFDTQLEEMLKNILNGNTEEIDKYADPNVKLEVGDHEYHGREHVKENWKEELDHMDVEVKSVHISARDGRAHVNLEFVVNIDGRPRHVKVREEFVWKNGKLKRANRHFSEEVKRQLER stands at 0.677

Measured protease stability score, DEDQLRNIAHKLNEVWQNGDPDEMKKLLDPNVKFRYGDKTVQGMNEYVTILREMVKRIDHAHVRDFTAHNGRIDIDIQFDVNGRTVSAKVSYVVDNGKVKRAKFDPKNMKKLQS : 0.036

DDDNVRKYVELMHEGDNEQLVRLADPNVRLQVGDKQYDGREDFEHHLRQIHTQADHFQVQDYHFEGDKAVMDVVMTVNGHQFRFKIHVEVRNGEVKQVQWDFTDPNQRDRFRNNLS yielded protease stability score of 0.611

Lab book: protease stability score of DEQEERDFNRNMVEILQQGDEEKARTNMDKDAHATYGDREYHGREQLADLLKEFRDRVDHIEMKDYSVTNGRVNVVFVAVFDGKRVELHADIQFRNGRIKRMTFKFRNEEQQKKLER noted as 0.361

// sample DEKALQLLQRIMEAWQKGDPQQVVDNIDKDARIHIGDKHLHGREDARRVVEQEMTEARLSFDVKHVSVQGDKVKVSFHAQLDTNGRPKTYRASATMNASNGKAKQMDVKEDK , its protease stability score was -0.232

---

Test: protease stability score; higher = more stable; yeast display proteolysis, trypsin and chymotrypsin;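 note: log10 excess protease needed over predicted unfolded state with 0 meaning unfolded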
Decision: protease stability score >= 0.4 yields Criterion met, all other cases yield Criterion not met.

Task item: I'd appreciate it if you could say whether DEEDLQRVAEEVARALDTGNPDKFNSLLDKDAKVNYGDKEYTGREELKKLQERIKEHVDHVHVKRVKVEGEKIHLDIEFEVNGRRFRDTIEARVHNGELQKVHVDPNFVRELKQ has protease stability score at least equal to 0.4.
Reply: Criterion met

Task item: Decide: protease stability score of DEDREAKKNLENMQKVLEKGDPDKMSELVDEDVRFVVGDKTFQGREDVRRRMETNVKRVDHIEVQIKHYEVKNGRARADAVFRVEVNGKETTRKFDVQVKVENGRFRVEQIRYK >= 0.4?
Reply: Criterion not met

Task item: Check this sequence for protease stability score at or above 0.4: DERALKMIREFEEIRSKGDERQLSEQVDKDADFHVGDKRLTGMDRVASELVQEVRDWRVSVDIKRMSISNGSLDIDAQVRFSHNGKPVTVHLDLKIIVHNGTIKQIEITNQP
Reply: Criterion met

Task item: Is it the case that DEDHLHRLVKEMVKVLQQGDPDRFMELADKDATAVIGDKRFHGRTQARKAVKEFTDTVDHIRIKTFNAHGDKVTIVVRLDHNGKNAILRIEFQVDNGRFKEVVFDPDHLQDLRR has protease stability score reaching or exceeding 0.4?
Reply: Criterion not met

Task item: Check the entry DDREQAQKFMDLFEDAIKDGDPRQAEELAPPDAKARYGDKKLTGMHDIARHFIDEVKRVDHHRVTYKDIKNEGNKFVFTFVYTFKHNGQSDDKQVRVEAENHNGRLLVTSIHDT : does protease stability score equal or exceed 0.4?
Reply: Criterion met

Task item: Is protease stability score at least 0.4? Consider DEDNTDRARKFFEALRTNDPDQVSSLLDPNARVHIGDRVINGREEVRTHIKHLTDKIRFQIQKVTVHVSNGRISAHVTFEVEVNGRPDRFNMEVVARVENGKIKVMQFKISEDQMQKLRN
Reply: Criterion met

Task item: I'd appreciate it if you could say whether DEDEKRKAEHLVRDGSFEELKDLMDENAKVRYGDKEFKGREQAQDAMRQMSRAVDSITVKSLDMQGDTVTARAQLTYNGQHYDVVIQMVVNNGRIKQFVVVVRDPKQKRTLENLRQ has protease stability score at least equal to 0.4.
Reply: Criterion met

Task item: // inclusive: protease stability score at least 0.4? input: DEDDKQEFAKSYNEVWKTGNEENAKRLFDENARMRVGDKEFHGHESIAHFLAEQVKRIDHIEFKQVDVQGEDMVFVFHFTVDGRKVHMTVKLRIHNGRIKDATINPQDIKKMEK
Reply: Criterion met

Task item: Decide: protease stability score of DDDAVRLFKEELKAEKNNNPDKIRELADPNARFKVGDKTVHGRESWARTVETRAREIRNDIDVKSYDNDNGRADIKMTVHQEENGRPQHNEASANITADNGRLKEVQIHSRP >= 0.4?
Reply: Criterion not met

Task item: Please check the record DESAIHDVTNLLHNIQTGNPDEVDKHMDKHVKLNVGDKQISGRHRVRKKVEREKKEIRIHITVYHMRSRPGRVKIDATRENEHNGTPHSHRVIVDVRYDNGKIVNFRVEDVK and state if its protease stability score is at or above 0.4.
Reply: Criterion not met

Task item: API: above_or_equal(metric=protease stability score, cutoff=0.4) for item DEERYKRLFEKVFKVVQNGNKDELKKLLAPNVEYNYVDKTYEGEEAAKAVVQLVKKVGAKAKQQKVEVKGDTATAHFQYENGDQRVETQAELHYEGDKVKKVQVKLTDEVKKVVHQG
Reply: Criterion not met
